Item-by-item account of CC50
Test: Cytotoxicity against Influenza A virus (A/California/07/2009(H1N1)) infected MDCK cells
Format: cell-based, Canis lupus familiaris
Settings: dog

1. COC(=O)[C@]1(C)CCC[C@]2(C)[C@H]3C[C@H]4C(C(C)C)=C[C@]3(CC[C@H]21)[C@H]1[C@@H]4[C@@H](OC(=O)/C=C/c2ccccc2)CC[C@@H]1OC(=O)C=Cc1ccccc1: 17 µM

Query (compound): `COC(=O)[C@]1(C)CCC[C@]2(C)[C@H]3C[C@H]4C(C(C)C)=C[C@]3(CC[C@H]21)[C@@H]1/C(=N/O)CCC(=O)[C@@H]14` ; field requested: CC50
31 µM

May I ask what CC50 has been recorded for `COC(=O)[C@]1(C)CCC[C@]2(C)[C@H]3C[C@H]4C(C(C)C)=C[C@]3(CC[C@H]21)[C@@H]1C(=O)CC[C@H](OC(C)=O)[C@@H]14` ?
> 100 µM

Tell me the measured CC50 of `CC(C)C1=C[C@@]23CC[C@H]4[C@](C)(CO)CCC[C@]4(C)[C@H]2C[C@@H]1[C@@H]1[C@H]3[C@@H](O)CC[C@@H]1O` , please.
11 µM

Fill blank: measured CC50 of the compound `CC(C)C1=C[C@]23CC[C@@H]4[C@](C)(CCC[C@@]4(C)C(=O)O)[C@H]2C[C@H]1[C@H]1C(=O)OC(=O)[C@H]13` is ____.
48 µM

Origin of measurements: ChEMBL document CHEMBL3616462
